- TARGET: hCA XII (Homo sapiens)
- Construct: made in house
- Sequence (O43570 25-354): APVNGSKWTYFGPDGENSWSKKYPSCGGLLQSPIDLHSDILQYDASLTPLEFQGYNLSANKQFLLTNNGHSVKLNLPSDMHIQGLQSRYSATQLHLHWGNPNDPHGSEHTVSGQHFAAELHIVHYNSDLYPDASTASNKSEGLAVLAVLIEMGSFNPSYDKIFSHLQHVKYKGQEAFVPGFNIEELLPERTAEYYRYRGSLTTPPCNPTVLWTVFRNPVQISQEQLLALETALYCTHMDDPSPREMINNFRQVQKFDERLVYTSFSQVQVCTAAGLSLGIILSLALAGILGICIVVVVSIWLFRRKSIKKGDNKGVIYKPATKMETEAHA
- EXPERIMENT: stopped-flow CO2 hydrase assay, hCA XII
- Format: biochemical
READOUT_LABEL: pKi
Numbers only, as −log10 of the molar value.

[in] Return reported pKi; argument: "COc1cc(/C=C/CO)cc(OC)c1O[C@@H]1O[C@H](CO)[C@@H](O)[C@H](O)[C@H]1O"
[out] 7.04

* * *

- TARGET: hCA XII (Homo sapiens)
- Construct: made in house
- EXPERIMENT: stopped-flow CO2 hydrase assay, hCA XII
- Type: biochemical
- TEST_SETTINGS: stopped-flow CO2 hydrase assay; mean of three assays, errors ±5–10%; read-out: KI hCA XII
- Method: The CA-catalyzed CO2 hydration activity of the compounds reported was assayed by means of the Applied Photophysics stopped-flow instrument. […] The uncatalyzed rates were determined in the same experimental manner and subtracted from the total observed values. […]
READOUT_LABEL: pKi
Numbers only, as −log10 of the molar value.

[in] Return reported pKi; argument: COc1cc([C@@H]2Oc3c(OC)cc(/C=C/CO)cc3[C@H]2CO)ccc1O [compound 6, (-)-dehydrodiconiferyl alcohol]
[out] 7.02

* * *

- TARGET: hCA IX (Homo sapiens)
READOUT_LABEL: Ki (µM)
Give bare numbers, in µM.

>>> recorded_measurement("COc1cc([C@@H]2Oc3c(OC)cc(/C=C/CO)cc3[C@H]2CO)ccc1O [compound 6, (-)-dehydrodiconiferyl alcohol]")
2.59

We now examine a further molecule.
[in] Return reported Ki; argument: "COc1cc(/C=C/CO)cc(OC)c1O[C@@H]1O[C@H](CO)[C@@H](O)[C@H](O)[C@H]1O"
[out] 0.32

* * *

Would you kindly list viability at 72 h, 10 µM for each of these compounds?
- EXPERIMENT: MTT cell viability assay
- Type: cell-based
- TEST_SETTINGS: human, Caco-2 cells; Caco-2, 10 µM, 72 h after treatment, percentage of control

Observe how each entry below is paired with its result.
>>> recorded_measurement("COc1cc([C@@H]2Oc3c(OC)cc(/C=C/CO)cc3[C@H]2CO)ccc1O [compound 6, (-)-dehydrodiconiferyl alcohol]")
"~70%"
>>> recorded_measurement("COc1cc(/C=C/CO)cc(OC)c1O[C@@H]1O[C@H](CO)[C@@H](O)[C@H](O)[C@H]1O")
"~50%"

We now examine a further compound.
[in] Return reported viability at 72 h, 10 µM; argument: "O=C(/C=C/c1ccc(O)c2c1[C@H](C(=O)O)[C@@H](c1ccc(O)c(O)c1)O2)O[C@H](Cc1ccc(O)c(O)c1)C(=O)O"
[out] ~50%

* * *

- TARGET: hCA I (Homo sapiens, UniProt P00915)
- Construct: made in house
- Sequence (P00915 whole entry): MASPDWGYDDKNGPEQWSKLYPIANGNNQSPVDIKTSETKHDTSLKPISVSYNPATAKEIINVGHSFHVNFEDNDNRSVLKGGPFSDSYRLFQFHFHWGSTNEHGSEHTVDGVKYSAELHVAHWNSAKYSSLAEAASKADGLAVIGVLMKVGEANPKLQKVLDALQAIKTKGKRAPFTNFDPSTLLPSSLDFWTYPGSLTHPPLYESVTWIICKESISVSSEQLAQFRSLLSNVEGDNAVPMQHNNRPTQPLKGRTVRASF
- EXPERIMENT: stopped-flow CO2 hydrase assay, hCA I
- Type: biochemical
pKi: −log10 of the molar value.
READOUT_LABEL: pKi

[in] Return reported pKi; argument: "COc1cc(/C=C/CO)cc(OC)c1O[C@@H]1O[C@H](CO)[C@@H](O)[C@H](O)[C@H]1O"
[out] < 4.00
